# Target Or System: Polyunsaturated fatty acid 5-lipoxygenase (Homo sapiens)
# Sequence (whole entry): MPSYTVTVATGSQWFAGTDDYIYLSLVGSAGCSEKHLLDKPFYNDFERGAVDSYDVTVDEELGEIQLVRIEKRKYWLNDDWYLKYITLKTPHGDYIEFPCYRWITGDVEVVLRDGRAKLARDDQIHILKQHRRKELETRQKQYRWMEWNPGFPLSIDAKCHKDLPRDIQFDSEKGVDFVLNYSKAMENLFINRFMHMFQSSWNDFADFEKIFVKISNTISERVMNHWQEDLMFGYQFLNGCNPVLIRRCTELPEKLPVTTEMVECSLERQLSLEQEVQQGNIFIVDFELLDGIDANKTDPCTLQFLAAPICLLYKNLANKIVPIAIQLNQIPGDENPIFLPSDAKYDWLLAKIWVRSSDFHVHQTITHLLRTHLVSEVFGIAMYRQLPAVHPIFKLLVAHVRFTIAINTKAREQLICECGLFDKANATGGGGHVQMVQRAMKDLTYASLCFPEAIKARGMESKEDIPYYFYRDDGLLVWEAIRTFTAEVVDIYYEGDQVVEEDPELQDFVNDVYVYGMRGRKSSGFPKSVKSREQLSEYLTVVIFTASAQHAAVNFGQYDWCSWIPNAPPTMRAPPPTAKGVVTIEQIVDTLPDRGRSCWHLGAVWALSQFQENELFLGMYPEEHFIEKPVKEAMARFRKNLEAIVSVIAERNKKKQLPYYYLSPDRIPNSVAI
# Procedure Details: Inhibitory activity against lipoxygenase (LO) at 1 uM concentration
Assay Endpoint: inhibition

INSERT INTO results (substance_smiles, observed_value) VALUES
  ('CC(C)(C)c1cc(/C=C/c2ccccn2)cc(C(C)(C)C)c1O', '34%'),
  ('CC(C)(C)c1cc(/C=C/c2cccnc2)ccc1O', '29%'),
  ('CCC(C)(C)c1cc(/C=C/c2cccnc2)cc(C(C)(C)CC)c1O', '27%'),
  ('Cc1cc(/C=C/c2cccnc2)cc(C(C)(C)C)c1O', '75%');
